Reference source: paper PMC8359396

Below: a set of entries, each annotated with reported AUC.
- method_summary: In vivo pharmacokinetics and brain penetration
- condition_info: male, C57BL/6NCrl, mouse, in vivo, iv, 10 mg, AUCplasma, mice; 10 mg∙kg^−1

* C[C@@H](CO)NC(=O)c1ccc(-c2c[nH]c3cc(F)ccc23)cc1 | 93.2 µM·h

# return recorded AUC for entry Fc1ccc2c(/C=C/c3nnn[nH]3)c[nH]c2c1 [LM10, reference compound]
985 µM·h

###

- assay_system: human MDR1 P-glycoprotein (ABCB1) (Homo sapiens)
- Construct: host or cells: MDCK (canine kidney)
- Sequence (P08183 whole entry): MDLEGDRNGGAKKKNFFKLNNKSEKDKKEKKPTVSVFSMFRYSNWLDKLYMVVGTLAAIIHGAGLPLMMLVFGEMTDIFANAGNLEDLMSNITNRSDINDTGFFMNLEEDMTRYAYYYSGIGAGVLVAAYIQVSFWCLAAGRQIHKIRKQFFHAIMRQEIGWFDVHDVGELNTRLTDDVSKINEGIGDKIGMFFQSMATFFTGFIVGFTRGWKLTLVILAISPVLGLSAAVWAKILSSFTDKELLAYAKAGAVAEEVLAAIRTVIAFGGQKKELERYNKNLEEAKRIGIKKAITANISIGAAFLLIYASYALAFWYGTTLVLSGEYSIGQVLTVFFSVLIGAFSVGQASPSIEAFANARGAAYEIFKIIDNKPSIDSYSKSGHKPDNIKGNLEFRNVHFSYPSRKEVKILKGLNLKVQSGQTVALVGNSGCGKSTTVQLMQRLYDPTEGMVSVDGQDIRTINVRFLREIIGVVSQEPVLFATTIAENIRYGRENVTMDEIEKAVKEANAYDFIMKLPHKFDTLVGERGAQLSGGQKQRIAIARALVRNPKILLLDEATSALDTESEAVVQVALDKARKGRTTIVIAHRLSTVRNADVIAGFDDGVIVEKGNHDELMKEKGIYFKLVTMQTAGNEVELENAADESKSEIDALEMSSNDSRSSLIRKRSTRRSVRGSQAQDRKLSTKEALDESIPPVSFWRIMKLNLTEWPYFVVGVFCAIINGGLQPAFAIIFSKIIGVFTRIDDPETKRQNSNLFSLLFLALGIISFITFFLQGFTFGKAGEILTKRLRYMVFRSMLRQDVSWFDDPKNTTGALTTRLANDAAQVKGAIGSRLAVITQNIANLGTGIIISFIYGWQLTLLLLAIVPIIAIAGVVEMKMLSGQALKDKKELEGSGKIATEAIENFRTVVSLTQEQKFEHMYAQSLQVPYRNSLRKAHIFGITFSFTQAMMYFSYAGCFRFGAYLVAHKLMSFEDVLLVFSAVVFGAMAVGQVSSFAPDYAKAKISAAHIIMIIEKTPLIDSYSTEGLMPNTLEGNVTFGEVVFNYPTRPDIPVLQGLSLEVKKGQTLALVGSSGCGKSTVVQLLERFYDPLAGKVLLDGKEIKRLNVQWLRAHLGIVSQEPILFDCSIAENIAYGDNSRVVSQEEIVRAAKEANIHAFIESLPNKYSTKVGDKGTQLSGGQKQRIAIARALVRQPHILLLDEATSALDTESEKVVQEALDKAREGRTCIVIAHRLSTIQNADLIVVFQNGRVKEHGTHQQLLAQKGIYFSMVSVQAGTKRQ
- method_summary: Bi‐directional transport assay, MDCK‐MDR1 monolayer
- Assay type: in vitro ADME
- condition_info: dog; MDCK‐MDR1; Elacridar −
property_label: Papp B→A (×10⁻⁶ cm/s)
Field format: number, assumed ×10⁻⁶ cm/s, no unit text.

• C[C@@H](CO)NC(=O)c1ccc(-c2c[nH]c3cc(F)ccc23)cc1 [NTRC 3531‐0] = 52

// next entry
State Papp B→A on human MDR1 P-glycoprotein (ABCB1) (Homo sapiens). Entry: Fc1ccc2c(/C=C/c3nnn[nH]3)c[nH]c2c1 [LM10, reference compound]
1.58

###

- assay_system: CYP2C19 (Homo sapiens, UniProt P33261)
- Sequence (P33261 whole entry): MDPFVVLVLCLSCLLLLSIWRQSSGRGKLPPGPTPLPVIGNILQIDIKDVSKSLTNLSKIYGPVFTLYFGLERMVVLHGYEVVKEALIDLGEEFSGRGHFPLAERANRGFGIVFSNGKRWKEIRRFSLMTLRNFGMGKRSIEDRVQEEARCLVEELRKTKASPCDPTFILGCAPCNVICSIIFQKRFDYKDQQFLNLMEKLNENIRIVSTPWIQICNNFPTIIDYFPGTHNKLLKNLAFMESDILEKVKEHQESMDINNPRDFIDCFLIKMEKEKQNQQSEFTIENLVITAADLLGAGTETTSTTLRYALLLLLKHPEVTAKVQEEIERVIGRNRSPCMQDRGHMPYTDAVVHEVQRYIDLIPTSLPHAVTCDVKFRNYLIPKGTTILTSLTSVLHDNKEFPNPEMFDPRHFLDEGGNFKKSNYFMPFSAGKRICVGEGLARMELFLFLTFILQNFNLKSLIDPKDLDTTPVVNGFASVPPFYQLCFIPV
property_label: IC50

State IC50 on CYP2C19 (Homo sapiens, UniProt P33261). Entry: C[C@@H](CO)NC(=O)c1ccc(-c2c[nH]c3cc(F)ccc23)cc1 [NTRC 3531‐0]
> 31.6 µM

###

- method_summary: In vivo pharmacokinetics and brain penetration
- condition_info: male, C57BL/6NCrl, mouse, in vivo, po, 100 mg, t½, mice; 5‐day p.o.; 100 mg∙kg^−1
property_label: half-life
Kindly report the value followed by its unit.

# return recorded half-life for entry C[C@@H](CO)NC(=O)c1ccc(-c2c[nH]c3cc(F)ccc23)cc1 [NTRC 3531‐0]
3.13 h

###

- method_summary: In vivo pharmacokinetics and brain penetration
- condition_info: male, C57BL/6NCrl, mouse, in vivo, po, 50 mg, Kpuu (unbound brain‐to‐plasma partition coefficient), mice; single p.o.; 50 mg∙kg^−1
property_label: Kp uu
Please give the numeric answer without any surrounding text.

# return recorded Kp uu for entry Fc1ccc2c(/C=C/c3nnn[nH]3)c[nH]c2c1 [LM10, reference compound]
0.012

###

- assay_system: CYP3A4 (Homo sapiens)
- Sequence (P08684 whole entry): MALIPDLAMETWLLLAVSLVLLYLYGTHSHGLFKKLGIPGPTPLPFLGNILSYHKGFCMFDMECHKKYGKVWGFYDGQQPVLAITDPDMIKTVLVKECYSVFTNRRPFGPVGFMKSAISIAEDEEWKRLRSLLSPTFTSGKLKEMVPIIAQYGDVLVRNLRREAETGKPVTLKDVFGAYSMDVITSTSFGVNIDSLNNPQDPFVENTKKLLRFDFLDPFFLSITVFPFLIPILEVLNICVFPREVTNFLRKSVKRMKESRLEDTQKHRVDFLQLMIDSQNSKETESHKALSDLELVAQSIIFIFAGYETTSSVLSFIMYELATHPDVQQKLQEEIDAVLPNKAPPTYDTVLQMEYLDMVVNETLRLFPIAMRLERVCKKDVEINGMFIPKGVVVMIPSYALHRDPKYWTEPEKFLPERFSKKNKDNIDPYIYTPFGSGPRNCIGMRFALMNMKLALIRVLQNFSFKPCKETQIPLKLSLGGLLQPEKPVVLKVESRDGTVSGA
property_label: IC50

# return recorded IC50 for entry C[C@@H](CO)NC(=O)c1ccc(-c2c[nH]c3cc(F)ccc23)cc1 [NTRC 3531‐0]
> 31.6 µM

###

- assay_system: hTDO2‐overexpressing HEK‐293 cells (HEK‐hTDO) (Homo sapiens, UniProt P48775)
- Sequence (P48775 whole entry): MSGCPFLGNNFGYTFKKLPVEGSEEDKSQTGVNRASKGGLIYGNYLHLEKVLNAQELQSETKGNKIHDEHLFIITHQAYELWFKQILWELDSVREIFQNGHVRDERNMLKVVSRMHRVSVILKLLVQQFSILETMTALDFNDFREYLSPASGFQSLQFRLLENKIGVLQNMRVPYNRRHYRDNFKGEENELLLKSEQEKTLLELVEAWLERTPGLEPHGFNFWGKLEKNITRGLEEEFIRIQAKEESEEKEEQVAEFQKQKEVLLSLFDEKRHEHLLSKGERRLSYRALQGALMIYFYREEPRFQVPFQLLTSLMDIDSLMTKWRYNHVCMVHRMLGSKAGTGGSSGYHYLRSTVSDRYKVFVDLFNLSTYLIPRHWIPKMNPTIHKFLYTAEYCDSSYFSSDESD
- method_summary: Cell-based TDO assay, HEK‐hTDO cells (NFK Green)
property_label: pIC50
The value called pIC50 is obtained by taking minus log10 of the concentration in mol/L.

# return recorded pIC50 for entry "C[C@@H](CO)NC(=O)c1ccc(-c2c[nH]c3cc(F)ccc23)cc1"
6.09

###

- assay_system: UniProtKB P10632
- Sequence (P10632 whole entry): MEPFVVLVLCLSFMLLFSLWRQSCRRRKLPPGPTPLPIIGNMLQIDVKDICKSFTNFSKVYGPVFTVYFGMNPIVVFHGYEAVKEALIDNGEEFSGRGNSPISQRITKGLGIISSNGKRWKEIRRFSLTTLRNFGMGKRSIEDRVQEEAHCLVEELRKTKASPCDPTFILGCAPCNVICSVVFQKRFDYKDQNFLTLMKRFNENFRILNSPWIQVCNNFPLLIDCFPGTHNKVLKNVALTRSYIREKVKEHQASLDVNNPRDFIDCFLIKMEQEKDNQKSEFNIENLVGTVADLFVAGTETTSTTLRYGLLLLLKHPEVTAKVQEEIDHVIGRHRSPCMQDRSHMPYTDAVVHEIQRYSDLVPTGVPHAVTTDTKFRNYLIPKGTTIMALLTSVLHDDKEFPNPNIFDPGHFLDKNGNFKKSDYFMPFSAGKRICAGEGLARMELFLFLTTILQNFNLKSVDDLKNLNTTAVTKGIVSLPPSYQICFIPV
property_label: IC50 (µM)
Field format: number, assumed µM, no unit text.

State IC50 on UniProtKB P10632. Entry: "C[C@@H](CO)NC(=O)c1ccc(-c2c[nH]c3cc(F)ccc23)cc1"
16.3

###

- assay_system: CYP2C9 (Homo sapiens, UniProt P11712)
- Sequence (P11712 whole entry): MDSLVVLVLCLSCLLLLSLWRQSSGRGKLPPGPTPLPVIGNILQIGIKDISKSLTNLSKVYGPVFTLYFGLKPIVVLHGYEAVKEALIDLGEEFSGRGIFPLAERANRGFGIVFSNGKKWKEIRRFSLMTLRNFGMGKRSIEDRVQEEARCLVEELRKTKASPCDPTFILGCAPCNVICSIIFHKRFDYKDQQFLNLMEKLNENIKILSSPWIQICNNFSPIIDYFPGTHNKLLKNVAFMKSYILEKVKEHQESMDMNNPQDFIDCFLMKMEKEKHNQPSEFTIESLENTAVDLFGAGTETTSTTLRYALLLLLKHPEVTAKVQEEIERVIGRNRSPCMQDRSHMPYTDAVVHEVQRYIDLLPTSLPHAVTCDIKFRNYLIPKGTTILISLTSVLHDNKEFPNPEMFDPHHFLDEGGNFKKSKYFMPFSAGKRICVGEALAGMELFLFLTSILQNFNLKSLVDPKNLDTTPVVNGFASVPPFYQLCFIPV
property_label: IC50

State IC50 on CYP2C9 (Homo sapiens, UniProt P11712). Entry: "C[C@@H](CO)NC(=O)c1ccc(-c2c[nH]c3cc(F)ccc23)cc1"
> 31.6 µM

###

- method_summary: In vivo pharmacokinetics and brain penetration
- condition_info: male, C57BL/6NCrl, mouse, in vivo, po, 100 mg, Kpuu (unbound brain‐to‐plasma partition coefficient), mice; 5‐day p.o.; 100 mg∙kg^−1
property_label: Kp uu
Please give the numeric answer without any surrounding text.

# return recorded Kp uu for entry "C[C@@H](CO)NC(=O)c1ccc(-c2c[nH]c3cc(F)ccc23)cc1"
0.067

###

- method_summary: In vivo pharmacokinetics and brain penetration
- condition_info: male, C57BL/6NCrl, mouse, in vivo, po, 50 mg, t½, mice; single p.o.; 50 mg∙kg^−1
property_label: half-life (min)
Field format: number, assumed min, no unit text.

# return recorded half-life for entry Fc1ccc2c(/C=C/c3nnn[nH]3)c[nH]c2c1 [LM10, reference compound]
185

###

Below: a set of entries, each annotated with reported Cmax.
- method_summary: In vivo pharmacokinetics and brain penetration
- condition_info: male, C57BL/6NCrl, mouse, in vivo, iv, 10 mg, Cmax, mice; 10 mg∙kg^−1; plasma
Field format: number, assumed µM, no unit text.

• C[C@@H](CO)NC(=O)c1ccc(-c2c[nH]c3cc(F)ccc23)cc1 [NTRC 3531‐0] = 56.5

# return recorded Cmax for entry Fc1ccc2c(/C=C/c3nnn[nH]3)c[nH]c2c1 [LM10, reference compound]
427

###

- method_summary: In vivo pharmacokinetics and brain penetration
- condition_info: male, C57BL/6NCrl, mouse, in vivo, po, 50 mg
property_label: Kp

# return recorded Kp for entry Fc1ccc2c(/C=C/c3nnn[nH]3)c[nH]c2c1 [LM10, reference compound]
0.006
